- assayTarget: AR (human) (Homo sapiens (Human), UniProt P10275, T878A)
- Sequence (P10275 whole entry T878A): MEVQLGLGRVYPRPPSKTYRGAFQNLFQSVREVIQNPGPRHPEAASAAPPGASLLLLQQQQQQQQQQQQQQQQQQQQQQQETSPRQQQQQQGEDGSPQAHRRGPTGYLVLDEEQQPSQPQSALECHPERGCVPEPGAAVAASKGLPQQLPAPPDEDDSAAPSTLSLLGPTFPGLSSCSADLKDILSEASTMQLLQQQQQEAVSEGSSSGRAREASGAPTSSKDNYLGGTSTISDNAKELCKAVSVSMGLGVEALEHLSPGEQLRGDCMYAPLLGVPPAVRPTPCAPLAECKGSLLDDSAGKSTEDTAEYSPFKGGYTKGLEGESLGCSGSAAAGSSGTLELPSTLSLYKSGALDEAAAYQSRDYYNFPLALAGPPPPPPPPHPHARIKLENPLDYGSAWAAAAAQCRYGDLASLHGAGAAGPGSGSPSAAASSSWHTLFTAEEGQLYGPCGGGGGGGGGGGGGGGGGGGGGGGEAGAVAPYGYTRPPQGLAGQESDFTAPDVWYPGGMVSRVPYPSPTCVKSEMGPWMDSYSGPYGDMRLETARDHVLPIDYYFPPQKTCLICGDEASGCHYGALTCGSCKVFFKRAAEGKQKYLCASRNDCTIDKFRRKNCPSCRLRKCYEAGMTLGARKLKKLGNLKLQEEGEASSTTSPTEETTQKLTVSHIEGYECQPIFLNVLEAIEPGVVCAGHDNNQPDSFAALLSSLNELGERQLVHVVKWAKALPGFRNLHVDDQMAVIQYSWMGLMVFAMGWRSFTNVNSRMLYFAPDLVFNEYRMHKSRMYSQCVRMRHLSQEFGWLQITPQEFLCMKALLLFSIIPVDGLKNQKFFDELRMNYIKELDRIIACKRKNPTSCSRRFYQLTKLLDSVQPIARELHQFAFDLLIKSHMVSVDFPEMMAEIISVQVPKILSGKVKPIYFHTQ
- testSummary: Radioligand binding to AR
- conditionDescription: [3H]methyltrienolone, LNCaP cells (cytosol)
property: pIC50
To interpret pIC50, take it as minus log10 of a concentration measured in moles per litre.

[in] Reported pIC50 for N#Cc1ncc(N2C(=O)C3(CCC3)N(c3ccc(OC4CCNCC4)nc3)C2=S)cc1C(F)(F)F [Cpd 43] : what is it?
[out] 8.16

----------
Recorded IC50 values for a group of molecules are listed next.
- assayTarget: wild-type Androgen Receptor (AR-wt) (Homo sapiens (Human))
- testSummary: LNCaP-AR-wt ANT reporter assay (antagonist mode)
- Assay type: cell-based
- conditionDescription: antagonist mode; pIC50 = −Log10(IC50 in Molar); read-out: LNCaP-AR-wt ANT pIC50 (converted)
Write the number in nM without appending the unit.

Below: 5 molecules and their reported IC50.
{"molecule": "CN1CC[C@@H](Oc2ccc(N3C(=S)N(c4cnc(C#N)c(C(F)(F)F)c4)C(=O)C34CCC4)cc2)C[C@H]1CO (racemic)", "reportedMeasurement": 60.3}
{"molecule": "N#Cc1ncc(N2C(=O)C3(CCC3)N(c3ccc(OC4CCN(CCO)CC4)nc3)C2=S)cc1C(F)(F)F", "reportedMeasurement": 81.3}
{"molecule": "CN1CCC[C@@H](CNC(=O)c2ccc(N3C(=S)N(c4cnc(C#N)c(C(F)(F)F)c4)C(=O)C34CCC4)cc2)C1", "reportedMeasurement": 708}
{"molecule": "CN1CCC(CNC(=O)c2ccc(N3C(=S)N(c4cnc(C#N)c(C(F)(F)F)c4)C(=O)C34CCC4)cc2F)CC1", "reportedMeasurement": 355}
{"molecule": "COC(=O)CN1CCC(Oc2ccc(N3C(=S)N(c4cnc(C#N)c(C(F)(F)F)c4)C(=O)C34CCC4)cc2)CC1", "reportedMeasurement": 708}

[in] Reported IC50 for CN1CCC(n2ncc3cc(N4C(=S)N(c5cnc(C#N)c(Cl)c5)C(=O)C45CCC5)ccc32)CC1 : what is it?
[out] 513

[in] Reported IC50 for CN1CCC[C@H](CNC(=O)c2ccc(N3C(=S)N(c4cnc(C#N)c(C(F)(F)F)c4)C(=O)C34CCC4)cc2F)C1 : what is it?
[out] 891

[in] Reported IC50 for N#Cc1ncc(N2C(=O)C3(CCC3)N(c3ccc(C(=O)NC[C@H]4CCCNC4)c(F)c3)C2=S)cc1C(F)(F)F : what is it?
[out] 2450

----------
Recorded Emax values for a group of compounds are listed next.
- assayTarget: wild-type Androgen Receptor (AR-wt) (Homo sapiens (Human), UniProt P10275)
- Sequence (P10275 whole entry): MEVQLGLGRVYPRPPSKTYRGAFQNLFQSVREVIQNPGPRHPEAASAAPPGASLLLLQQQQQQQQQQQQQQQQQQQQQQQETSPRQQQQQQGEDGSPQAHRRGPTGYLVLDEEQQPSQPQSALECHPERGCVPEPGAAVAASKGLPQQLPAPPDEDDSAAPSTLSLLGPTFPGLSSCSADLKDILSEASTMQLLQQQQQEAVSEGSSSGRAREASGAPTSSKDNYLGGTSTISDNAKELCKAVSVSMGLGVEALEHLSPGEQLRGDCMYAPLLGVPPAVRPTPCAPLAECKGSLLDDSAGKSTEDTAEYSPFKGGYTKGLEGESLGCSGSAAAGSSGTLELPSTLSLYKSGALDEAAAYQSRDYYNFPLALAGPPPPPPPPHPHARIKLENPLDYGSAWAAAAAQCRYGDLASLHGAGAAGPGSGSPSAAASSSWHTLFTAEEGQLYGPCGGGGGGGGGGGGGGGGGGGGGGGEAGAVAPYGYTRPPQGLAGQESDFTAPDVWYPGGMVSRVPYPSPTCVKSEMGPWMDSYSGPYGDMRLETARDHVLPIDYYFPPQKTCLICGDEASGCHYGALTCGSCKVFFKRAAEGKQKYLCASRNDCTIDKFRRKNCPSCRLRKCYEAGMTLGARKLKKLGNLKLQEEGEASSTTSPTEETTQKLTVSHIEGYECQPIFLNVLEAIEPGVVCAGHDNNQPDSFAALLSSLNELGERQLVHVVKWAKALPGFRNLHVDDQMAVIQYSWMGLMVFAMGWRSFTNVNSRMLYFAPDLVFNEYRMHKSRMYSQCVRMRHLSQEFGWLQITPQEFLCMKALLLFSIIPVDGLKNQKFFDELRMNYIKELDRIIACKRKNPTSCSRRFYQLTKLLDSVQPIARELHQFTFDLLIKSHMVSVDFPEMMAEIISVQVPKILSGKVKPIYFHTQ
- testSummary: LNCaP-AR-wt ANT reporter assay (antagonist mode)
- Type: cell-based
- conditionDescription: maximum % inhibition of R1881 control response over the tested concentration range; read-out: LNCaP-AR-wt ANT MAX % Inh
Write the number in % without appending the unit.

Below: 2 compounds and their reported Emax.
{"compound": "CN1CCC(C)(Oc2ccc(N3C(=S)N(c4cnc(C#N)c(C(F)(F)F)c4)C(=O)C34CCC4)cc2)CC1 [Cpd 143]", "Emax [%]": 103}
{"compound": "CN1CC[C@H](Oc2ccc(N3C(=S)N(c4cnc(C#N)c(C(F)(F)F)c4)C(=O)C34CCC4)cc2)[C@H](F)C1 (racemic) [Cpd 102]", "Emax [%]": 99.7}

[in] Reported Emax for CC(C)(C)OC(=O)N1CCc2cc(N3C(=S)N(c4cnc(C#N)c(C(F)(F)F)c4)C(=O)C34CCC4)ccc2C1 [Cpd 118] : what is it?
[out] 101

[in] Reported Emax for CN1CCC(n2ncc3cc(N4C(=S)N(c5cnc(C#N)c(Cl)c5)C(=O)C45CCC5)ccc32)CC1 [Cpd 183] : what is it?
[out] 100

[in] Reported Emax for COc1cc(N2C(=O)C3(CCC3)N(c3ccc(OC4CCN(C)CC4)nc3)C2=S)cnc1C#N [Cpd 25] : what is it?
[out] 101

[in] Reported Emax for N#Cc1ncc(N2C(=O)C3(CCC3)N(c3ccc4c(cnn4C4CCNCC4)c3)C2=S)cc1C(F)(F)F [Cpd 119] : what is it?
[out] 102

[in] Reported Emax for N#Cc1ncc(N2C(=O)C3(CCC3)N(c3ccc(N4CCOCC4)cc3)C2=S)cc1C(F)(F)F [Cpd 69] : what is it?
[out] 101

----------
- assayTarget: F876L mutant Androgen Receptor (AR-F876L) (Homo sapiens (Human), UniProt P10275, F877L)
- Sequence (P10275 whole entry F877L): as the sequence (P10275 whole entry T878A) above, with F877L, A878T counted along it
- testSummary: LNCaP-AR-F876L ANT reporter assay (antagonist mode)
- Type: cell-based
- conditionDescription: maximum % inhibition of R1881 control response over the tested concentration range; read-out: LNCaP-AR-F876L ANT MAX % Inh
Recorded Emax values for a group of molecules are listed next.
Write the number in % without appending the unit.

[in] Reported Emax for Cc1cc(N2C(=O)C3(CCC3)N(c3ccc(OC4CCN(C)CC4)nc3)C2=S)cnc1C#N : what is it?
[out] 99.9

[in] Reported Emax for CN1CCC(CNC(=O)c2ccc(N3C(=S)N(c4cnc(C#N)c(C(F)(F)F)c4)C(=O)C34CCC4)cc2)CC1 : what is it?
[out] 100

[in] Reported Emax for CN1CCC(n2ncc3cc(N4C(=S)N(c5cnc(C#N)c(C(F)(F)F)c5)C(=O)C45CCC5)ccc32)CC1 : what is it?
[out] 98.8

[in] Reported Emax for N#Cc1ncc(N2C(=O)C3(CCC3)N(c3ccc4c(c3)CCNC4)C2=S)cc1C(F)(F)F : what is it?
[out] 94.8

[in] Reported Emax for CN1CCC(n2ncc3cc(N4C(=S)N(c5cnc(C#N)c(Cl)c5)C(=O)C45CCC5)ccc32)CC1 : what is it?
[out] 101

[in] Reported Emax for Cc1cc(N2C(=O)C3(CCC3)N(c3ccc(OC4CCN(CC#N)CC4)nc3)C2=S)cnc1C#N : what is it?
[out] 99.3

[in] Reported Emax for Cc1cc(N2C(=O)C3(CCC3)N(c3ccc(OC4CCSCC4)nc3)C2=S)cnc1C#N : what is it?
[out] 69.9

[in] Reported Emax for CC(=O)N1CCC(n2ncc3cc(N4C(=S)N(c5cnc(C#N)c(C(F)(F)F)c5)C(=O)C45CCC5)ccc32)CC1 : what is it?
[out] 97.9

----------
- assayTarget: AR-FL and AR-V7 in 22RV1 cells
- testSummary: 22RV1 AR-FL and AR-V7 Transcriptional Reporter Assay
- Format: cell-based
- conditionDescription: 22RV1, in the absence of 0.1 nM R1881; read-out: IC50, agonist mode
property: pIC50
To interpret pIC50, take it as minus log10 of a concentration measured in moles per litre.

[in] Reported pIC50 for N#Cc1ncc(N2C(=O)C3(CCC3)N(c3ccc(OC4CCNCC4)nc3)C2=S)cc1C(F)(F)F : what is it?
[out] 3.92

----------
- assayTarget: F876L mutant Androgen Receptor (AR-F876L) (Homo sapiens (Human), UniProt P10275, F877L)
- testSummary: LNCaP-AR-F876L AG reporter assay (agonist mode)
- Assay type: cell-based
- conditionDescription: agonist mode; maximum % stimulation over tested concentration range; read-out: LNCaP-AR-F876L AG MAX % Stim
property: Emax (%)
Write the number in % without appending the unit.

{"compound": "CN1CCC(NC(=O)c2ccc(N3C(=S)N(c4cnc(C#N)c(C(F)(F)F)c4)C(=O)C34CCC4)cc2)C1 (stereo not shown) [Cpd 192]", "assayTarget": "F876L mutant Androgen Receptor (AR-F876L) (Homo sapiens (Human), UniProt P10275, F877L)", "u": "%", "Emax": 0.1}
{"compound": "CN1CCC[C@H](CNC(=O)c2ccc(N3C(=S)N(c4cnc(C#N)c(C(F)(F)F)c4)C(=O)C34CCC4)cc2F)C1 [Cpd 203]", "assayTarget": "F876L mutant Androgen Receptor (AR-F876L) (Homo sapiens (Human), UniProt P10275, F877L)", "u": "%", "Emax": 0}
{"compound": "CN1CCC[C@@H](CNC(=O)c2ccc(N3C(=S)N(c4cnc(C#N)c(C(F)(F)F)c4)C(=O)C34CCC4)cc2)C1 [Cpd 185]", "assayTarget": "F876L mutant Androgen Receptor (AR-F876L) (Homo sapiens (Human), UniProt P10275, F877L)", "u": "%", "Emax": 0.8}

Now for the compound whose Emax we want.
[in] Emax of N#Cc1ncc(N2C(=O)C3(CCC3)N(c3cnc(OC4CCN(CCO)CC4)nc3)C2=S)cc1C(F)(F)F [Cpd 252] on F876L mutant Androgen Receptor (AR-F876L) (Homo sapiens (Human), UniProt P10275, F877L)?
[out] -0.1

----------
- assayTarget: F876L mutant Androgen Receptor (AR-F876L) (Homo sapiens (Human), UniProt P10275, F877L)
- testSummary: LNCaP-AR-F876L AG reporter assay (agonist mode)
- Assay type: cell-based
- conditionDescription: maximum % stimulation (agonist response) over the tested concentration range; read-out: LNCaP-AR-F876L AG MAX % Stim
Recorded Emax values for a group of molecules are listed next.
Write the number in % without appending the unit.

Below: 3 molecules and their reported Emax.
{"molecule": "COc1cc(N2C(=S)N(c3cnc(C#N)c(C)c3)C(=O)C23CCC3)ccc1-c1ccc(C)o1 [Cpd 5]", "u": "%", "Emax": 3.3}
{"molecule": "Cc1cc(N2C(=O)C3(CCC3)N(c3ccc(OC4CCN(CC#N)CC4)nc3)C2=S)cnc1C#N [Cpd 90]", "u": "%", "Emax": 0.9}
{"molecule": "Cc1cc(N2C(=O)C3(CCC3)N(c3ccc(-c4cn[nH]c4)cc3)C2=S)cnc1C#N [Cpd 3]", "u": "%", "Emax": 1.8}

[in] Emax of CN1CC2CC1CC2Oc1ccc(N2C(=S)N(c3cnc(C#N)c(C(F)(F)F)c3)C(=O)C23CCC3)cc1 (centres unmarked) [Cpd 176] on F876L mutant Androgen Receptor (AR-F876L) (Homo sapiens (Human), UniProt P10275, F877L)?
[out] 0.1

[in] Emax of CN1CC[C@H](Oc2ccc(N3C(=S)N(c4cnc(C#N)c(C(F)(F)F)c4)C(=O)C34CCC4)cc2)[C@@H](F)C1 (racemic) [Cpd 92] on F876L mutant Androgen Receptor (AR-F876L) (Homo sapiens (Human), UniProt P10275, F877L)?
[out] 0.5

[in] Emax of N#Cc1ncc(N2C(=O)C3(CCC3)N(c3ccc(OC4CCSCC4)cc3)C2=S)cc1C(F)(F)F [Cpd 12] on F876L mutant Androgen Receptor (AR-F876L) (Homo sapiens (Human), UniProt P10275, F877L)?
[out] 0.7

[in] Emax of CN1CCC(Oc2ccc(N3C(=S)N(c4cnc(C#N)c(C(F)(F)F)c4)C(=O)C34CCC4)cn2)CC1 [Cpd 1] on F876L mutant Androgen Receptor (AR-F876L) (Homo sapiens (Human), UniProt P10275, F877L)?
[out] 0.1

[in] Emax of CC(C)(C)OC(=O)N1CCN(C(=O)c2ccc(N3C(=S)N(c4cnc(C#N)c(C(F)(F)F)c4)C(=O)C34CCC4)cc2)CC1 [Cpd 32] on F876L mutant Androgen Receptor (AR-F876L) (Homo sapiens (Human), UniProt P10275, F877L)?
[out] -0.1
